Measured values drawn from patent EP4725946A1 for this set.

# TEST SUMMARY: Pharmacokinetic study in mice
# Assay type: in vivo
# PROTOCOL CONDITIONS: mouse, iv; male mice, i.v. (2 mg/kg), plasma
# Method: Six male mice weighing 20-30 g were randomly divided into two groups. […] Plasma samples were processed and analyzed using LC/MS/MS in MRM)mode. A validated standard curve was established for the quantitative determination of the target compound in plasma, enabling the generation of plasma drug concentration-time profiles. Pharmacokinetic parameters were calculated using WinNonlin software with a non-compartmental model.
MEASURE: log10(half-life) (log10 of the value in h)
Units before log transform: h; reported quantity: half-life; transform: log10.

[
  {
    "COMPOUND": "Cn1c(=O)n(C2CCC(=O)NC2=O)c2cccc(N3CCN(CCN4CCC5(CC4)Cc4cc(NC(=O)c6cnn7cccnc67)c(N6CCC(CO)CC6)cc4O5)CC3)c21 (centres unmarked) [Example 95]",
    "MEASURED": 0.33
  },
  {
    "COMPOUND": "Cn1c(=O)n(C2CCC(=O)NC2=O)c2cccc(C#CCO[C@H]3CC[C@H](CN4CCC5(CC4)Cc4cc(NC(=O)c6cnn7cc(Cl)cnc67)c(N6CCC(CO)CC6)cc4O5)CC3)c21 (some centres unmarked) [Compound 37]",
    "MEASURED": 0.53
  },
  {
    "COMPOUND": "Cn1c(=O)n(C2CCC(=O)NC2=O)c2cccc(N3CCN(C(=O)CN4CCC5(CC4)Cc4cc(NC(=O)c6cnn7cccnc67)c(N6CCC(CO)CC6)cc4O5)CC3)c21 (centres unmarked) [Compound 70]",
    "MEASURED": 0.49
  },
  {
    "COMPOUND": "Cn1c(=O)n(C2CCC(=O)NC2=O)c2cccc(C#CCO[C@H]3CC[C@H](CN4CCC5(CC4)Cc4cc(NC(=O)c6coc7cccnc67)c(N6CCC(CO)CC6)cc4O5)CC3)c21 (some centres unmarked) [Compound 35]",
    "MEASURED": 0.58
  },
  {
    "COMPOUND": "Cc1cnc2c(C(=O)Nc3cc4c(cc3N3CCC(CO)CC3)OC3(CCN(C[C@H]5CC[C@H](OCC#Cc6cccc7c6n(C)c(=O)n7C6CCC(=O)NC6=O)CC5)CC3)C4)cnn2c1 (some centres unmarked) [Compound 36]",
    "MEASURED": 0.45
  },
  {
    "COMPOUND": "Cn1c(=O)n(C2CCC(=O)NC2=O)c2cccc(CN3CCC(CCN4CCC5(CC4)Oc4cc(NC(=O)c6cnn7cccnc67)c(N6CCC(CO)CC6)cc4O5)CC3)c21 (centres unmarked) [Compound 15]",
    "MEASURED": 1.35
  },
  {
    "COMPOUND": "Cn1c(=O)n(C2CCC(=O)NC2=O)c2cccc(C#CCO[C@H]3CC[C@H](CN4CCC5(CC4)Cc4cc(NC(=O)c6cnn7cccnc67)c(N6CCC(C(C)(C)O)CC6)cc4O5)CC3)c21 (some centres unmarked) [Compound 41]",
    "MEASURED": 0.33
  },
  {
    "COMPOUND": "Cn1c(=O)n(C2CCC(=O)NC2=O)c2cccc(C#CCO[C@H]3CC[C@@H](CN4CCC5(CC4)Cc4cc(NC(=O)c6cnn7cccnc67)c(N6CCC(CO)CC6)cc4O5)CC3)c21 (relative stereo) [Compound 55]",
    "MEASURED": 0.48
  },
  {
    "COMPOUND": "Cn1c(=O)n(C2CCC(=O)NC2=O)c2cccc(C#CCO[C@H]3CC[C@H](CN4CCC5(CC4)Cc4cc(NC(=O)c6cnc7cccnn67)c(N6CCC(CO)CC6)cc4O5)CC3)c21 (some centres unmarked) [Compound 45]",
    "MEASURED": 0.31
  },
  {
    "COMPOUND": "Cn1c(=O)n(C2CCC(=O)NC2=O)c2cccc(N3CCC(CN4CCC5(CC4)Cc4cc(NC(=O)c6cnn7cccnc67)c(N6CCC(CO)CC6)cc4O5)CC3)c21 (centres unmarked) [Example 78]",
    "MEASURED": 1.52
  }
]

Let us examine a further case.
Request: Which value of log10(half-life) has been reported for Cn1nc(N2CCC(=O)NC2=O)c2cc(F)c(N3CCC(O)(CC(=O)N4CCC5(CC4)Cc4cc(NC(=O)c6cnn7cccnc67)c(N6CCC(CO)CC6)cc4O5)CC3)cc21 [Example 77] in the records?
Response: 0.67
